What IC50 was measured for each of the following?
# assayed.target: T1, c-Met/Fc Chimera (R&D Systems, catalog # 358-MT-100) (human, UniProt P08581 25-932)
# T1 construct: extracellular domain; Bought reagent; also called human c-Met-Fc fusion protein; recombinant c-Met protein; Fc part of the bought chimera not given
# T1 sequence (P08581 25-932, change not shown): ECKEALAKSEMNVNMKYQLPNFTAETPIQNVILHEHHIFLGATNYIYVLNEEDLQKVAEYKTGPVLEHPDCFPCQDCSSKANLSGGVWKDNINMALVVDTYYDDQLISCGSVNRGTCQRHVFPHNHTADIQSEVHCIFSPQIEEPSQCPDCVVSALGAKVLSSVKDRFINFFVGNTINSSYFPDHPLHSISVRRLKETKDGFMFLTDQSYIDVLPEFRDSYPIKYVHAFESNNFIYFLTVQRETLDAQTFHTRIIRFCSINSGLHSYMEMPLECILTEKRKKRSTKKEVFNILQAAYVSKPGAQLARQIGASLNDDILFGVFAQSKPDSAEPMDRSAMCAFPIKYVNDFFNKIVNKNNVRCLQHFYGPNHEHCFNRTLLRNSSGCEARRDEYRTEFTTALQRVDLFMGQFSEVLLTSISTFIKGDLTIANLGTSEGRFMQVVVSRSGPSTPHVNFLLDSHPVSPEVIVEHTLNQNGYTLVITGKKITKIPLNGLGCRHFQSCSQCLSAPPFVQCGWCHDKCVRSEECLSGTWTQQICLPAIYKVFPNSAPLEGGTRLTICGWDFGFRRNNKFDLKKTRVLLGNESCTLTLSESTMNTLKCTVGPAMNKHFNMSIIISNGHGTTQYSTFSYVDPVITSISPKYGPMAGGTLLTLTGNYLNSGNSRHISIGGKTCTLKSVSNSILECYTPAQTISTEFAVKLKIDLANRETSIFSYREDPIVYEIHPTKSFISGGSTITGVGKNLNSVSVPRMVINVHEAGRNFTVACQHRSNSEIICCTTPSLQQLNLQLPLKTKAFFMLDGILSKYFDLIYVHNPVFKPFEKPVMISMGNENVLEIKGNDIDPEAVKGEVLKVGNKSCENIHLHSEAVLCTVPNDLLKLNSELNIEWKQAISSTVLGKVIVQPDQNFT
# assay.notes: competition ELISA: displacement of biotinylated HGF from plate-coated c-Met/Fc chimera, IgG, n = 2
A number alone suffices; assume nM.

Give a short answer stating reported IC50 for c-Met IgG antibody 12133 (antibody, V domains shown, IgG of scFv PGIA-4-A5; also called 12133 IgG; IgG of scFv PGIA-04-A5 (PGIA-4-A5)) VH: QVQLQESGPGLVKPSGTLSLTCAVSGGSISTSDWWSWVRRPPGKGLEWIGEIYHSGSTNYHPSLKSRVTISLDKSKNQFSLKLSSVTAADTAVYYCAREGGHSGSYPLDYWGRGTLVTVSS VL: NFMLTQPHSVSESPGKTATISCTGSGGSIARSYVQWYQQRPGRAPSIVIYEDYQRPSGVPDRFSGSIDSSSNSASLTITGLKTDDEADYYCQSSDDNNNVVFGGGTKVTVLG . 0.58

Answer with the recorded IC50 for the binder listed here: c-Met IgG antibody 11994 (antibody, V domains shown, IgG of scFv PGIA-3-A9; also called 11994 IgG; 11994-50) VH: QVQLQESGPGLVKPSGTLSLTCAVSGGSISTSDWWSWVRRPPGKGLEWIGEIYHSGSTNYHPSLKSRVTISLDKSKNQFSLKLSSVTAADTAVYYCAREGGHSGSYPLDYWGKGTLVTVSS VL: NFMLTQPHSVSESPGKTVTISCTRSSGSIASNYVQWYQQRPGSSPTTVIYEDNQRPSGVPDRFSGSIDSSSNSASLTISGLKTEDEADYYCQSYDSSNQGVVFGGGTKLTVLG 0.58

Please give measured IC50 of the following entry: c-Met IgG antibody 12136 (antibody, V domains shown, IgG of scFv PGIA-4-A8; also called 12136 IgG; IgG of scFv PGIA-04-A8 (PGIA-4-A8)) VH: QVQLQESGPGLVKPSETLSLTCNVSGGSIRNYFWSWIRQPPGQGLEYIGYIYYSGTTDYNPSLKGRVTISLDTSKTQFSLKLNSVTAADTAFYYCVRGPNKYAFDPWGQGTLVTVSS VL: SYELTQPPSVSVSPGQTASITCSGDKLGDKFASWYQQKAGQSPVLVIYRDTKRPSGIPERFSGSNSGNTATLTISGTQAMDEADYYCQAWDSSTAVFGTGTKVTVLG 1
